Data credit: ChEMBL document CHEMBL3714716

# TEST SYSTEM: UniProt:Q9HBX9
# Sequence (Q9HBX9 whole entry): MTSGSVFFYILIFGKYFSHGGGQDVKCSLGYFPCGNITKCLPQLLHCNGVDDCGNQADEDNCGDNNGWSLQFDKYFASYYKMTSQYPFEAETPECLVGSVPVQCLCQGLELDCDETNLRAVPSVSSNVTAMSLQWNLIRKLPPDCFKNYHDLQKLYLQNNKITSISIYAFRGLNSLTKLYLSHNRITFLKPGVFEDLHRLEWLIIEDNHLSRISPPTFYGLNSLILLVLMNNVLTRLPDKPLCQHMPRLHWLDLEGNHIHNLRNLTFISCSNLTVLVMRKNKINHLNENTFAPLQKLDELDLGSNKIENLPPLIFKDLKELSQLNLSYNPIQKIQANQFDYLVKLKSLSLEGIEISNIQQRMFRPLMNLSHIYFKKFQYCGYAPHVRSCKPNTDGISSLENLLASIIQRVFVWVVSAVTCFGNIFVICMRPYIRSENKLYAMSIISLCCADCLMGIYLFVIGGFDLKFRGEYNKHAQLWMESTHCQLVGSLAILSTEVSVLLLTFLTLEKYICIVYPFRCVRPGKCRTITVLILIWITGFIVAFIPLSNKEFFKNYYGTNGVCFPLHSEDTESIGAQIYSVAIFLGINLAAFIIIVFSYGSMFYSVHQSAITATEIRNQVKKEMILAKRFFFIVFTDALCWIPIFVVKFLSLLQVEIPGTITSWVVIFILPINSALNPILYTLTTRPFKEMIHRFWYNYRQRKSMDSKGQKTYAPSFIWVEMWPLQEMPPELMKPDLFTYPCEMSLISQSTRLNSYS
# PROTOCOL: Agonist activity at RXFP1 receptor (unknown origin) expressed in HEK293 cells assessed as stimulation of cAMP production incubated for 30 mins by TR-FRET based HTRF assay relative to forskolin
# Assay type: functional, cell-based
ASSAY READOUT: %max

# annotated cases, reported %max shown
O=C(Nc1cccc(F)c1)c1ccccc1NC(=O)C1CCCCC1 = 81%
O=C(Nc1ccccc1C(=O)Nc1cccc(C(F)(F)F)c1)c1cccc(-c2ccccc2)c1 = 89%
O=C(Nc1ccccc1C(=O)Nc1cccc(C(F)(F)F)c1)c1ccccc1 = 64%

Let's switch to this molecule now.
Documented %max of CS(=O)(=O)c1cccc(C(=O)Nc2ccccc2C(=O)Nc2cccc(C(F)(F)F)c2)c1 : 77%
